Molecular target: NET (norepinephrine transporter) (Rattus norvegicus, UniProt Q63380)
Construct: Cortex from rat brain was collected and homogenised; from tissue; host or cells: rat brain cortex
Sequence (Q63380 1-617): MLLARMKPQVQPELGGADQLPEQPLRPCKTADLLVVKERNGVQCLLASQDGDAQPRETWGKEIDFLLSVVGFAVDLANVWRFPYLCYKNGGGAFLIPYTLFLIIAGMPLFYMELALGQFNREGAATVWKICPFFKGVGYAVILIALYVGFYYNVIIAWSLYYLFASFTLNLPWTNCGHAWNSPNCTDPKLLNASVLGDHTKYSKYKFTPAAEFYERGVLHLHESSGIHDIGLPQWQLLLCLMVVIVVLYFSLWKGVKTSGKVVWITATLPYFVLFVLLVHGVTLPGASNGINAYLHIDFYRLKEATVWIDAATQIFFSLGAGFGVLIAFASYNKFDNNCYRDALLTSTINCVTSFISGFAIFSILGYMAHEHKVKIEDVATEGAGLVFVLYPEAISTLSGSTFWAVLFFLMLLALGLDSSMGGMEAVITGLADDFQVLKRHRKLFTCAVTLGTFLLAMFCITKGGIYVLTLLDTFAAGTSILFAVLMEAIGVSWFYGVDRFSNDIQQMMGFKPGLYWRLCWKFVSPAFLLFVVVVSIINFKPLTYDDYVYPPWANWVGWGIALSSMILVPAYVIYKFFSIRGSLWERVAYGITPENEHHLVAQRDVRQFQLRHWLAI
Test: In vitro determination of NET reuptake inhibition ([3H]Nixosetine binding, rat brain cortex)
Conditions: rat brain cortex, read-out: NET pIC50 (converted)
Please assign n whenever IC50 is at or above 2 µM, and y whenever it is below.

[[record]]
compound = "COC(=O)C(Cc1ccc(Cl)cc1)NC(=O)C1CCN(CC2CC3c4ccccc4Cc4ccc(F)cc4C3O2)CC1 (mixture of isomers)"
target = "NET (norepinephrine transporter) (Rattus norvegicus, UniProt Q63380)"
cat = "n"

[[record]]
compound = "COC(=O)C1CCN(C[C@H]2C[C@@H]3c4ccccc4Cc4ccc(F)cc4[C@@H]3O2)C1 (stereo partly drawn) [Compound 12]"
target = "NET (norepinephrine transporter) (Rattus norvegicus, UniProt Q63380)"
cat = "y"

[[record]]
compound = "Fc1ccc2c(c1)C1OC(CN3CCN(c4nc5ccccc5s4)CC3)CC1c1ccccc1C2 (stereo not drawn)"
target = "NET (norepinephrine transporter) (Rattus norvegicus, UniProt Q63380)"
cat = "n"

[[record]]
compound = "CC(C)(C)OC(=O)N1CCN(C(=O)C2CCN(CC3CC4c5ccccc5Cc5ccc(F)cc5C4O3)CC2)CC1 (stereo not drawn)"
target = "NET (norepinephrine transporter) (Rattus norvegicus, UniProt Q63380)"
cat = "y"

[[record]]
compound = "O=C(NCCC(c1ccccc1)c1ccccc1)C1CCN(CC2CC3c4ccccc4Cc4ccc(F)cc4C3O2)CC1 (stereo not drawn)"
target = "NET (norepinephrine transporter) (Rattus norvegicus, UniProt Q63380)"
cat = "n"

[[record]]
compound = "Fc1ccc2c(c1)C1OC(CN3CCN(Cc4ccco4)CC3)CC1c1ccccc1C2 (stereo not drawn)"
target = "NET (norepinephrine transporter) (Rattus norvegicus, UniProt Q63380)"
cat = "y"

[[record]]
compound = "OC1CCCN(CC2CC3c4ccccc4Cc4ccc(F)cc4C3O2)C1 (single isomer, unassigned) [Compound 142]"
target = "NET (norepinephrine transporter) (Rattus norvegicus, UniProt Q63380)"
cat = "n"

[[record]]
compound = "CCOC(=O)CNC(=O)N1CCN(CC2CC3c4ccccc4Cc4ccc(F)cc4C3O2)CC1 (stereo not drawn)"
target = "NET (norepinephrine transporter) (Rattus norvegicus, UniProt Q63380)"
cat = "n"

[[record]]
compound = "N#CCCC1CCN(CC2CC3c4ccccc4Cc4ccc(F)cc4C3O2)CC1 (stereo not drawn)"
target = "NET (norepinephrine transporter) (Rattus norvegicus, UniProt Q63380)"
cat = "n"

[[record]]
compound = "O=S(=O)(Cc1ccccc1)N1CCN(CC2CC3c4ccccc4Cc4ccc(F)cc4C3O2)CC1 (stereo not drawn)"
target = "NET (norepinephrine transporter) (Rattus norvegicus, UniProt Q63380)"
cat = "n"

[[record]]
compound = "CN(CCO)CCC1CN(CC2CC3c4ccccc4Cc4ccc(F)cc4C3O2)CCO1 (mixture of isomers)"
target = "NET (norepinephrine transporter) (Rattus norvegicus, UniProt Q63380)"
cat = "y"

[[record]]
compound = "Cc1ccc(C(=O)OC2CCN(CC3CC4c5ccccc5Cc5ccc(F)cc5C4O3)C2)cc1 (mixture of isomers)"
target = "NET (norepinephrine transporter) (Rattus norvegicus, UniProt Q63380)"
cat = "n"

[[record]]
compound = "O=C(NC(=S)N1CCN(CC2CC3c4ccccc4Cc4ccc(F)cc4C3O2)CC1)c1ccccc1 (stereo not drawn)"
target = "NET (norepinephrine transporter) (Rattus norvegicus, UniProt Q63380)"
cat = "n"

[[record]]
compound = "O=C(NCc1ccccn1)C1CCN(CC2CC3c4ccccc4Cc4ccc(F)cc4C3O2)CC1 (stereo not drawn)"
target = "NET (norepinephrine transporter) (Rattus norvegicus, UniProt Q63380)"
cat = "n"

[[record]]
compound = "O=C(C1CCCO1)N1CCN(CC2CC3c4ccccc4Cc4ccc(F)cc4C3O2)CC1 (mixture of isomers)"
target = "NET (norepinephrine transporter) (Rattus norvegicus, UniProt Q63380)"
cat = "n"

